# Tested on: S. aureus membranes
# Procedure Summary: Membrane dipole potential
# Type: binding, Staphylococcus aureus
# Measurement Setup: fixed concentration 40 μM, fluorescence ratio R(460/520)
Measurement Label: change in membrane dipole potential

CCCCCCCCCc1nc2ccccc2c(=O)[nH]1	little impact
CCCCCCCCCc1[nH]c2ccccc2c(=O)c1O [Compound C9-PQS, reference compound]	little impact

###

# Tested Target: S. aureus membranes
# Procedure Summary: Membrane dipole potential
# Assay type: binding, Staphylococcus aureus
# Measurement Setup: read-out: Kd (membrane binding); binding curves, di-8-ANEPPS
Measurement Label: Kd
Please format your answer as a value with the unit trailing.

Checklist item: Kd tested on S. aureus membranes, entry CCCCCCCCCc1nc2cc(Cl)ccc2c(=O)n1CCCCN , value?
5.2 µM

The measurements presented in this section are drawn from paper PMC9605878.
